system: Escherichia coli; experiment: Antibacterial activity against Escherichia coli assessed as growth inhibition after 24 hr by two-fold serial dilution method; assay type: functional
Consider the cut-off 200 µg/mL. If the recorded MIC is strictly smaller, the label is satisfied; if not, the label is not satisfied.

O=C(/C=C/C=C/c1ccc2c(c1)OCO2)N[C@@H](Cc1c[nH]c2ccccc12)C(=O)O = not satisfied

# input hey, is MIC for O=C(/C=C/C=C/c1ccc2c(c1)OCO2)N1CCCCC1 lower than 200 µg/mL or not?
# output not satisfied

# input Confirm or reject: MIC of O=C(/C=C/C=C/c1ccc2c(c1)OCO2)N[C@@H](Cc1ccccc1)C(=O)O lies strictly below 200 µg/mL
# output not satisfied

# input Report whether reported MIC is lower than 200 µg/mL (strictly) for CC1(C)S[C@@H]2[C@H](NC(=O)[C@H](N)c3ccccc3)C(=O)N2[C@H]1C(=O)O
# output satisfied

# input State whether 200 µg/mL exceeds MIC recorded for O=C(/C=C/C=C/c1ccc2c(c1)OCO2)Nc1ccc(Cl)cc1 .
# output satisfied
